Just for reference, ChEMBL document CHEMBL1201862 is where these values come from.

Molecular target: Caspase-3 (Homo sapiens, UniProt P42574);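 also: Dose-response selectivity test against caspase-3 for candidate inhibitors of sentrin-specific proteases (SENPs)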
Sequence (P42574 whole entry): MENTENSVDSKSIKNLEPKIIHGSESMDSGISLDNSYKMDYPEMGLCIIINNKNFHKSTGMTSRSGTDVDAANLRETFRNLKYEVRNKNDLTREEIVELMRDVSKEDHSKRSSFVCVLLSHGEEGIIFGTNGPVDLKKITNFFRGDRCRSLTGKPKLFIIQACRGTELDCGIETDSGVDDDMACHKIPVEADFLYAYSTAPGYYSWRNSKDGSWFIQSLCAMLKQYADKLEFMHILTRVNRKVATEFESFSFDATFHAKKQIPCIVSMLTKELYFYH
Format: functional
Activity calls are given as the source filed them.
// allowed return values: 1 for active, 0 for inactive

# fetch the recorded call for Clc1ccc(COn2nnc3ccccc32)c(Cl)c1 here
1

# fetch the recorded call for O=C(O)c1ccc(N/N=C/c2cn(Cc3ccccc3F)c3ccccc23)cc1 here
1

# fetch the recorded call for Cc1ccnc(Nc2nc(-c3ccccc3)cs2)c1 here
1

# fetch the recorded call for COc1cc(O)c(CC=C(C)C)c(O)c1C(=O)CCc1ccc(O)cc1 [DIHYDROXANTHOHUMOL] here
0

# fetch the recorded call for Cc1ccc(Nc2nc(-c3cccnc3)cs2)cc1C here
1

# fetch the recorded call for COc1cccc(OCc2cc(/C=N/Nc3ccc(C(=O)O)cc3)ccc2OC)c1 here
1

# fetch the recorded call for O=C(COC(=O)c1cccc(NC(=O)c2ccco2)c1)c1ccc(Br)cc1 here
1
